Task for the reader: assign each of the following compounds its reported half-life.
# assay.info: Half life in rat at 5 mg/kg, iv
# Assay type: ADME, organism-based
# Parameters: dose 5 mg/kg, route intravenous
# condition.description: in vivo
Numbers only, in h.

INSERT INTO measurements (smiles_string, property_label, value_unit, measured_number) VALUES
  ('Cc1cccc(C)c1/C=C/n1cnc2c(Nc3ccc(P(C)(C)=O)cc3)nc(C(C)C)nc21', 'half-life', 'h', 7.5),
  ('Cc1cccc(C)c1/C=C/n1cnc2c(Nc3ccc(P(C)(C)=O)cc3)ncnc21', 'half-life', 'h', 3.93),
  ('CCCP(=O)(CCC)c1ccc(Nc2ncnc3c2ncn3/C=C/c2c(C)cccc2C)cc1', 'half-life', 'h', 1.2),
  ('Cc1cccc(Cl)c1/C=C/n1cnc2c(Nc3ccc(P(C)(C)=O)cc3)ncnc21', 'half-life', 'h', 2.74);

// moving on: another record for half-life
Task: For the compound Cc1ccc2[nH]ncc2c1/C=C/n1cnc2c(Nc3ccc(P(C)(C)=O)cc3)ncnc21 , give its measured half-life value.
Output: 1.2
